system name: Sodium channel alpha subunits; brain (Types I, II, III) (Rattus norvegicus, UniProt P04775+P04774+P08104)
assay method text: Inhibitory effect against veratridine-induced glutamate release from rat brain slices
Format: functional
// values below are reported IC50
Give the value in µM but do not write µM after it.

Check out these entries, answers already filled in.
# molecule, recorded number
rows = [
    ("C[C@H](CN1CCC2(C)c3cccc(O)c3C[C@@H]1C2(C)C)OCC1CCCCC1", 1.481),
    ("CO[C@H](C)CN1CCC2(C)c3cccc(O)c3C[C@@H]1C2(C)C", 4.153),
    ("CC(CN1CCC2(C)C[C@@H]1Cc1c(O)cccc12)OCc1ccccc1 (stereo not given in full)", 0.255),
    ("C[C@H](CN1CCC2(C)c3cccc(O)c3C[C@H]1C2(C)C)OCc1ccccc1", 3.772),
    ("C[C@H](CN1CCC2(C)c3ccc(O)cc3C[C@@H]1C2(C)C)Oc1ccccc1", 6.024),
]

# query: IC50 of entry C[C@H](CN1CCC2(C)c3cccc(O)c3C[C@@H]1C2(C)C)OCc1ccccc1
0.922

# query: IC50 of entry C[C@@H](CN1CCC2(C)c3ccc(O)cc3C[C@@H]1C2(C)C)OCc1ccccc1
2.3

# query: IC50 of entry C[C@@H](CN1CCC2(C)c3ccc(O)cc3C[C@H]1C2(C)C)OCc1ccccc1
4.516

# query: IC50 of entry C[C@H](CN1CCC2(C)c3ccc(O)cc3C[C@H]1C2(C)C)Oc1ccccc1
6.34

---

system name: Sodium channel alpha subunits; brain (Types I, II, III) (Rattus norvegicus, UniProt P04775+P04774+P08104)
assay method text: Inhibitory effect against veratridine-induced glutamate release from rat brain slices
Assay type: functional
Response field class: enum, chosen by comparing IC50 against c1: < 500 nmol/L; c2: ≥ 500 nmol/L and < 3000 nmol/L; c3: ≥ 3000 nmol/L

Into which category would you place CC1[C@H]2Cc3c(O)cccc3C1(C)CCN2C[C@H](C)OCc1ccccc1 (stereo not given in full) ?
c1

Into which category would you place C[C@@H](CN1CCC2(C)c3cccc(O)c3C[C@H]1C2(C)C)OCc1ccccc1 ?
c2

Into which category would you place CO[C@H](C)CN1CCC2(C)c3cccc(O)c3C[C@H]1C2(C)C ?
c3

---

// values below are reported ED50
Species on record: Mus musculus
assay method text: Ability to block convulsions in the maximal electroshock test (MES) in mice
Assay type: functional
run parameters: read-out: ID50 (the source's name)
Give the value in mg/kg but do not write mg/kg after it.

Check out these entries, answers already filled in.
# compound, recorded number
records = [
    ("CC1[C@H]2Cc3c(O)cccc3C1(C)CCN2C[C@H](C)OCc1ccccc1 (stereo not given in full)", 2.4),
    ("CC1[C@H]2Cc3c(O)cccc3C1(C)CCN2C[C@@H](C)OCc1ccccc1 (stereo not given in full)", 3.1),
    ("CC12CCN(CCOCc3ccccc3)[C@H](Cc3c(O)cccc31)C2(C)C", 2.1),
    ("C[C@@H](CN1CCC2(C)c3cccc(O)c3C[C@@H]1C2(C)C)OCc1ccccc1", 6.1),
    ("C[C@H](CN1CCC2(C)c3ccc(O)cc3C[C@@H]1C2(C)C)OCc1ccccc1", 35.3),
]

# query: ED50 of entry C[C@@H](CN1CCC2(C)c3ccc(O)cc3C[C@@H]1C2(C)C)OCc1ccccc1
10.1

# query: ED50 of entry C[C@H](CN1CCC2(C)c3cccc(O)c3C[C@@H]1C2(C)C)OCc1ccccc1
9.4

# query: ED50 of entry CC(CN1CCC2(C)C[C@@H]1Cc1c(O)cccc12)OCc1ccccc1 (stereo not given in full)
2.2
